Target: T1, 6xHis‐tagged LC3A (human, UniProt Q9H492 1-121)
T1 construct: LC3A (MAP1LC3A), human; also called His6‐LC3A; MAP1LC3A; source: E. coli, isolated
Assay: ELISA; called peptide array: biotinylated peptides immobilised on streptavidin-coated 96-well plates; 1 μM His6-mATG8 in PBS, 0.1% Tween-20, 1% BSA, 1 h, 8°C; anti-His-HRP, TMB, absorbance at 450 nm
Settings: both partners purified
Ends that are not written are not given here.
measured-quantity: binding result

Study these solved cases before continuing.
INSERT INTO assay_data (binder, observed_value) VALUES
  ('EDEWVYVQY (peptide, UniProt Q9Y4G2 632-640, looked up, also: biotinylated, PLEKHM1 LIR; source: bought: JPT (biotinylated peptide)) [PLEKHM1‐LIR N637Y peptide (biotinylated 9-mer)]', 'binds'),
  ('EDEWVWVQY (peptide, UniProt Q9Y4G2 632-640, looked up, also: biotinylated, PLEKHM1 LIR; source: bought: JPT (biotinylated peptide)) [PLEKHM1‐LIR N637W peptide (biotinylated 9-mer)]', 'binds'),
  ('EDEWVIVQY (peptide, UniProt Q9Y4G2 632-640, looked up, also: biotinylated, PLEKHM1 LIR; source: bought: JPT (biotinylated peptide)) [PLEKHM1‐LIR N637I peptide (biotinylated 9-mer)]', 'binds'),
  ('EDEYVNVQY (peptide, UniProt Q9Y4G2 632-640, looked up, also: biotinylated, PLEKHM1 LIR; source: bought: JPT (biotinylated peptide)) [PLEKHM1‐LIR W635Y peptide (biotinylated 9-mer)]', 'binds');

Now turn to the next binder.
Enquiry: Please list binding result recorded for the binder EDEWVNVQY (also: biotinylated, PLEKHM1 LIR; also called PLEKHM1 LIR 632–640; source: bought: JPT (biotinylated peptide)) [PLEKHM1‐LIR WT peptide (EDEWVNVQY), biotinylated]
Return: binds

FYI, the data here is from paper PMC5538626.
